Numbers sourced from ChEMBL document CHEMBL1148376.

Molecular target: Sodium-dependent dopamine transporter (Rattus norvegicus, UniProt P23977)
Sequence (P23977 whole entry): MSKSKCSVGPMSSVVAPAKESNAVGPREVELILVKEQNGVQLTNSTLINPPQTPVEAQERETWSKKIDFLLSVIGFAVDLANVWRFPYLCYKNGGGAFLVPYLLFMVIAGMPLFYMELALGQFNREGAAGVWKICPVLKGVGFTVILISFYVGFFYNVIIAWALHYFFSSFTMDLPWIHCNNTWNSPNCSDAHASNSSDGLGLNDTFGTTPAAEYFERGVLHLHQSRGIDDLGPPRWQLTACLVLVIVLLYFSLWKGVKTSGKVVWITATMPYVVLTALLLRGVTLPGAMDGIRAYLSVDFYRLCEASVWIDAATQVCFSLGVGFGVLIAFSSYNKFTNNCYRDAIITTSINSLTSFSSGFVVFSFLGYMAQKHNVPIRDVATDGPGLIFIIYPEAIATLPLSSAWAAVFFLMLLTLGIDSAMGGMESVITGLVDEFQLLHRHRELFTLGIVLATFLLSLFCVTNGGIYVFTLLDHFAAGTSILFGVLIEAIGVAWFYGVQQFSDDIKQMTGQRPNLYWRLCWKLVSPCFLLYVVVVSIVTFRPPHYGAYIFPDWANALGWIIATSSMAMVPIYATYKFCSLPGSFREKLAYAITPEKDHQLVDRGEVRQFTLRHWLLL
Rule: IC50 below 4 nM gives Y, anything at or above gives N.

compound	class_name
Cc1ccc(C2CC3CCC(C2c2cc(C(C)(C)C)no2)N3C)cc1 (stereo unspecified)	N

Please determine if Cc1ccc(C2CC3CCC(C2c2cc(-c4ccc(F)cc4)no2)N3C)cc1 (stereo unspecified) is below 4 nM in terms of IC50.
N

Please determine if COc1ccc(-c2cc(C3C(c4ccc(Cl)cc4)CC4CCC3N4C)on2)cc1 (stereo unspecified) is below 4 nM in terms of IC50.
Y

Please determine if Cc1ccc(-c2cc(C3C(c4ccc(C)cc4)CC4CCC3N4C)on2)cc1 (stereo unspecified) is below 4 nM in terms of IC50.
N

Please determine if Cc1ccc(C2CC3CCC(C2c2cc(-c4ccccc4)no2)N3C)cc1 (stereo unspecified) is below 4 nM in terms of IC50.
Y

Please determine if Cc1cc(C2C(c3ccc(Cl)cc3)CC3CCC2N3C)on1 (stereo unspecified) is below 4 nM in terms of IC50.
Y

Please determine if CN1C2CCC1C(c1cc(-c3ccc(Cl)cc3)no1)C(c1ccc(Cl)cc1)C2 (stereo unspecified) is below 4 nM in terms of IC50.
N

Please determine if CCc1cc(C2C(c3ccc(Cl)cc3)CC3CCC2N3C)on1 (stereo unspecified) is below 4 nM in terms of IC50.
Y

Please determine if CN1C2CCC1C(c1cc(C(C)(C)C)no1)C(c1ccc(Cl)cc1)C2 (stereo unspecified) is below 4 nM in terms of IC50.
N

Please determine if Cc1ccc(C2CC3CCC(C2c2ccno2)N3C)cc1 (stereo unspecified) is below 4 nM in terms of IC50.
Y
